The reported numbers originate from ChEMBL document CHEMBL4706681.

For each record, write down the corresponding Activity.
- Target system: Amine oxidase [flavin-containing] A (Homo sapiens)
- Sequence (P21397 whole entry): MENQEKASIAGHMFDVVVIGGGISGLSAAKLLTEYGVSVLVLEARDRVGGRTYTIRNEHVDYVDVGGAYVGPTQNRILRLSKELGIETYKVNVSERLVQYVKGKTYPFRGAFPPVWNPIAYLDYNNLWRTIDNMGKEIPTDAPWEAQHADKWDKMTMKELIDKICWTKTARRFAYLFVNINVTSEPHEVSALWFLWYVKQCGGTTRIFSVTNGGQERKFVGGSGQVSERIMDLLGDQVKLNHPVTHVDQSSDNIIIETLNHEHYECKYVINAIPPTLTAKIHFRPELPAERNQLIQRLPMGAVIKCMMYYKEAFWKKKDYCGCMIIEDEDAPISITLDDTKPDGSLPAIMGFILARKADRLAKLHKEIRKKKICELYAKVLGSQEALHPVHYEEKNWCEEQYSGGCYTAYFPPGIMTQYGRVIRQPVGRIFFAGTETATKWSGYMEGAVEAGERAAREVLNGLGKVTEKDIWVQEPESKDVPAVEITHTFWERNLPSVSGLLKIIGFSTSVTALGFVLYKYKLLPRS
- Assay comment: Reversible inhibition of human MAO-A assessed as residual enzyme activity at 4 fold IC50 incubated for 15 mins and measured before dialysis by dialysis method relative to control
# output: bare number, implied unit %

Request: Give recorded Activity with Amine oxidase [flavin-containing] A (Homo sapiens) for the following compound: COc1ccc(C2=NN(C(=O)Cn3c(=O)oc4ccccc43)C(c3ccccc3Cl)C2)cc1 (centres undefined)
Result: 18.11

Request: Give recorded Activity with Amine oxidase [flavin-containing] A (Homo sapiens) for the following compound: COc1ccccc1/C=C/C(=N\NC(=O)Cn1c(=O)oc2ccc(Cl)cc21)c1ccccc1
Result: 19.55

Request: Give recorded Activity with Amine oxidase [flavin-containing] A (Homo sapiens) for the following compound: COc1ccc(C2=NN(C(=O)Cn3c(=O)oc4ccc(C)cc43)C(c3cccc(OC)c3OC)C2)cc1 (centres undefined)
Result: 22.16

Request: Give recorded Activity with Amine oxidase [flavin-containing] A (Homo sapiens) for the following compound: O=C(NCCN1CCOCC1)c1ccc(Cl)cc1 [MOCLOBEMIDE]
Result: 36
